# test-details: mn = molality of the nth substance listed, in mol/kg
# condition-info: 318.15 K; 100 kPa; Liquid; Frequency=3 MHz; Sing-around technique in a fixed-path interferometer; m2 = 0
test-readout: speed of sound (m/s)
Answer in m/s, number only, no unit symbol.

Which speed of sound is reported for this compound? C[S+](C)[O-] [dimethyl sulfoxide] + COc1cc(-c2cc(-c3ccccc3)[nH]c(=O)c2C#N)ccc1O 1417.4

Which speed of sound is reported for this compound? C[S+](C)[O-] [dimethyl sulfoxide] + COc1cc(-c2cc(-c3ccc(Cl)cc3)[nH]c(=O)c2C#N)ccc1O 1417.4

Which speed of sound is reported for this compound? C[S+](C)[O-] [dimethyl sulfoxide] + COc1cc(-c2cc(-c3ccc(O)cc3)[nH]c(=O)c2C#N)ccc1O 1417.4

Which speed of sound is reported for this compound? C[S+](C)[O-] [dimethyl sulfoxide] + COc1cc(-c2cc(-c3ccccc3O)[nH]c(=O)c2C#N)ccc1O 1417.4
